Some molecules, each annotated with its measured ED50.
- study_target: Transcription factor p65 (Homo sapiens) (UniProt Q04206)
- Sequence (Q04206 whole entry): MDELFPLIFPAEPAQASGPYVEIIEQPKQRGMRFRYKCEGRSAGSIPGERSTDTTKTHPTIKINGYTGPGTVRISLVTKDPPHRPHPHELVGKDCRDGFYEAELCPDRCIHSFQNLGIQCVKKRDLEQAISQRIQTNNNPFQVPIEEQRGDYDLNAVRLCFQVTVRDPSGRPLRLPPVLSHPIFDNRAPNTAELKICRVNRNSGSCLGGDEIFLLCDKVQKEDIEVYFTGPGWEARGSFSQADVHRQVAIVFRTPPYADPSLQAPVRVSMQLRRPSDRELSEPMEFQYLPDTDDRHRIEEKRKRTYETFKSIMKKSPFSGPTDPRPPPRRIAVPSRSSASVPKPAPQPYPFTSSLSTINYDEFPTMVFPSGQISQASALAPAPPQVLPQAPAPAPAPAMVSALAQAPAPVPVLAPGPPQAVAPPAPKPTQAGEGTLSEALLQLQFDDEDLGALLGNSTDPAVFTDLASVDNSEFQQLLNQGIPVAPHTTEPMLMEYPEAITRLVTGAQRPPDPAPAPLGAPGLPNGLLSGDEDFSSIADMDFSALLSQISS
- method_description: Inhibition of NF-kappaB p65 (unknown origin) by ELISA

molecule | ED50
COc1ccc([C@@]23Oc4cc(OC)cc(OC)c4[C@]2(OC)[C@H](O)C[C@H]3c2ccccc2)cc1 | > 20 µM
COC(=O)[C@H]1[C@@H](O)[C@@]2(O)c3c(OC)cc(OC)cc3O[C@@]2(c2ccc(OC)cc2)[C@@H]1c1ccccc1 | > 20 µM
COC(=O)[C@H]1[C@@H](O)[C@@]2(OC)c3c(OC)cc(OC)cc3O[C@@]2(c2ccc(OC)cc2)[C@@H]1c1ccccc1 | > 20 µM
COc1ccc([C@]23Oc4cc(OC)cc(OC)c4[C@](O)(C2O)[C@@H](c2ccccc2)[C@@H]3C(=O)NCCCCNC(=O)/C(C)=C/CO)cc1 (stereo in doubt; 1) | > 20 µM
COc1ccc([C@@]23Oc4cc(OC)cc(OC)c4[C@]2(O)[C@H](O)[C@H](C(N)=O)[C@H]3c2ccccc2)cc1 [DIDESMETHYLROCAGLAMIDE] | > 20 µM
CC(C)=C[C@H](O)[C@@H](O)[C@@H](CO)[C@H]1CC[C@@]2(C)[C@@H]3CC[C@H]4C(C)(C)[C@@H](O)CC[C@@]45C[C@@]35CC[C@]12C | > 20 µM
CC(C)[C@H]1CC[C@]2(C)C(=O)CCC(C=O)=C[C@H]12 | 0.005 µM
CC1=CC(O)N(CCCCNC(=O)/C=C/c2ccccc2)C1=O (stereo not given) [GIGANTAMIDE A] | > 20 µM
COC(=O)[C@H]1[C@@H](O)[C@@]2(O)c3c(OC)cc(OC)cc3O[C@@]2(c2ccc3c(c2)OCO3)[C@@H]1c1ccccc1 | 3.54 µM
C=C(CC[C@@H](CO)[C@H]1CC[C@@]2(C)[C@@H]3CC[C@H]4C(C)(C)[C@@H](O)CC[C@@]45C[C@@]35CC[C@]12C)C(C)C | > 20 µM

----------
- Tested on: HT-29
- method_description: Cytotoxicity against human HT-29 cells
- Assay type: functional
- condition_description: Homo sapiens, HT-29; read-out: ED50 (the source's name)
pEC50: −log10 of the molar value.

compound | readout_relation | pEC50
COc1cc(OC)c2c(c1)O[C@@]1(c3ccc4c(c3)OCO4)[C@H](c3ccccc3)C[C@@H](O)[C@@]21OC | = | 6.02
CC(C)[C@H]1CC[C@]2(C)C(=O)CCC(C=O)=C[C@H]12 | < | 4.70
COC(=O)[C@H]1[C@@H](OC=O)[C@@]2(O)c3c(OC)cc(OC)cc3O[C@@]2(c2ccc3c(c2)OCO3)[C@@H]1c1ccccc1 | = | 7.25
COc1ccc(-c2oc3cc(OC)cc(OC)c3c(=O)c2O)cc1 | < | 5.00
CC1=CC(O)N(CCCCNC(=O)/C=C/c2ccccc2)C1=O (stereo not given) [GIGANTAMIDE A] | < | 5.00
COC(=O)[C@H]1[C@@H](OC=O)[C@@]2(O)c3c(OC)cc(OC)cc3O[C@@]2(c2ccc(OC)cc2)[C@@H]1c1ccccc1 | = | 7.72
COc1cc(OC)c2c(c1)O[C@@]1(c3ccc4c(c3)OCO4)[C@H](c3ccccc3)C[C@@H](O)[C@@]21O | = | 8.17
COc1cc2ccc(=O)oc2cc1O | < | 5.00
COc1ccc([C@@]23Oc4cc(OC)cc(OC)c4[C@]2(OC)[C@H](O)C[C@H]3c2ccccc2)cc1 | < | 5.00
COc1ccc([C@@]23Oc4cc(OC)cc(OC)c4[C@]2(O)[C@H](O)[C@H](C(=O)N(C)C)[C@H]3c2ccccc2)cc1 [ROCAGLAMIDE] | = | 8.30
COC(=O)[C@H]1[C@@H](O)[C@@]2(O)c3c(OC)cc(OC)cc3O[C@@]2(c2ccc(OC)cc2)[C@@H]1c1ccccc1 | = | 7.92
C=C(CC[C@@H](CO)[C@H]1CC[C@@]2(C)[C@@H]3CC[C@H]4[C@H](C)[C@@H](O)CC[C@@]45C[C@@]35CC[C@]12C)C(C)C | < | 5.00
CC(C)=CC(=O)[C@@H](O)[C@@H](C)[C@H]1CC[C@@]2(C)[C@@H]3CC[C@H]4C(C)(C)[C@@H](O)CC[C@@]45C[C@@]35CC[C@]12C | < | 5.00
CC1(C)[C@H](O)CC[C@]2(C)[C@H]3CC[C@@H]4[C@@H]([C@]5(C)CCC(=O)O5)CC[C@@]4(C)[C@]3(C)CC[C@@H]12 [CABRALEAHYDROXYLACTONE] | < | 5.00
C=C(CC[C@@H](CO)[C@H]1CC[C@@]2(C)[C@@H]3CC[C@H]4C(C)(C)[C@@H](O)CC[C@@]45C[C@@]35CC[C@]12C)C(C)C | < | 5.00
COC(=O)[C@H]1[C@@H](O)[C@@]2(OC)c3c(OC)cc(OC)cc3O[C@@]2(c2ccc3c(c2)OCO3)[C@@H]1c1ccccc1 | = | 5.33
COc1ccc([C@@]23Oc4cc(OC)cc(OC)c4[C@]2(O)[C@H](O)[C@H](C(N)=O)[C@H]3c2ccccc2)cc1 [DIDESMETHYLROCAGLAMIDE] | = | 7.68
CC(=O)O[C@H]1C(=O)[C@@]2(C)[C@H]([C@H](OC(=O)c3ccccc3)[C@]3(O)C[C@H](OC(=O)[C@H](O)[C@@H](NC(=O)c4ccccc4)c4ccccc4)C(C)=C1C3(C)C)[C@]1(OC(C)=O)CO[C@@H]1C[C@@H]2O | = | 9.00
CC(C)=C[C@H]1OC[C@@H]([C@H]2CC[C@@]3(C)[C@@H]4CC[C@H]5C(C)(C)[C@@H](O)CC[C@@]56C[C@@]46CC[C@]23C)[C@@H]1O | < | 5.00
CC(C)=C[C@H](O)[C@@H](O)[C@@H](CO)[C@H]1CC[C@@]2(C)[C@@H]3CC[C@H]4C(C)(C)[C@@H](O)CC[C@@]45C[C@@]35CC[C@]12C | < | 5.00
